Experiment: Fraction unbound in rat plasma
Format: ADME, cell-free
MEASURE: fraction unbound
Quick one: just the number, no unit, thanks!

Field fraction unbound (entry Nc1cncc(-c2cn3ccnc3c(Nc3ccc(N4CCN(C5COC5)CC4)cc3)n2)n1 ) reads 0.118

====

Molecular target: Tyrosine-protein kinase SYK (Homo sapiens)
Test: Inhibition of SYK in human Ramos cells assessed as reduction in antihuman IgM F(ab)2-induced phosphorylation of BLNK at Y96 residue preincubated for 1 hr followed by antihuman IgM F(ab)2 stimulation for 5 mins by MSD high bind plate assay
Format: cell-based
Our labelling divides records by EC50 into ranges: bottom = under 40 nM, middle = from 40 nM up to 80 nM, top = 80 nM and over

{"COMPOUND": "c1cn2cc(-c3ccc4nc[nH]c4c3)nc(Nc3ccc(N4CCN(C5COC5)CC4)cc3)c2n1", "CATEGORY LABEL": "middle"}

Query block: GET /class?item= c1cn2cc(-c3cnc4cn[nH]c4n3)nc(Nc3ccc(N4CCN(C5COC5)CC4)cc3)c2n1
Result block: bottom

Query block: GET /class?item= COCCN1CCN(c2ccc(Nc3nc(-c4ccc5cn[nH]c5c4)cn4ccnc34)cc2)CC1
Result block: bottom

Query block: GET /class?item= O=S1(=O)CCN(c2ccc(Nc3nc(-c4ccc5cn[nH]c5c4)cn4ccnc34)cc2)CC1
Result block: bottom

Query block: GET /class?item= c1cn2cc(-c3ccc4cn[nH]c4c3)nc(Nc3ccc(N4CC5CC(C4)O5)cc3)c2n1
Result block: middle

Query block: GET /class?item= c1cn2cc(-c3ccc4cc[nH]c4c3)nc(Nc3ccc(N4CCN(C5COC5)CC4)cc3)c2n1
Result block: bottom

Query block: GET /class?item= Nc1cncc(-c2cn3ccnc3c(Nc3ccc(N4CCN(C5COC5)CC4)cc3)n2)c1
Result block: top

Query block: GET /class?item= c1cn2cc(-c3cnc4c(c3)NCCO4)nc(Nc3ccc(N4CCN(C5COC5)CC4)cc3)c2n1
Result block: middle

Query block: GET /class?item= c1cn2cc(-c3ccc4c(c3)NCCO4)nc(Nc3ccc(N4CCN(C5COC5)CC4)cc3)c2n1
Result block: middle

Query block: GET /class?item= c1cn2cc(-c3cnc4nc[nH]c4c3)nc(Nc3ccc(N4CCN(C5COC5)CC4)cc3)c2n1
Result block: top

Query block: GET /class?item= c1cn2cc(-c3cnc4nc[nH]c4n3)nc(Nc3ccc(N4CCN(C5COC5)CC4)cc3)c2n1
Result block: top

Query block: GET /class?item= C[C@@H]1CN(c2ccc(Nc3nc(-c4ccc5cn[nH]c5c4)cn4ccnc34)cc2)C[C@H](C)O1
Result block: middle

Query block: GET /class?item= Nc1cccc(-c2cn3ccnc3c(Nc3ccc(N4CCN(C5COC5)CC4)cc3)n2)c1
Result block: top

Query block: GET /class?item= c1cn2cc(-c3ccc4nc[nH]c4n3)nc(Nc3ccc(N4CCN(C5COC5)CC4)cc3)c2n1
Result block: middle

Query block: GET /class?item= c1cn2cc(-c3cnc4cn[nH]c4c3)nc(Nc3ccc(N4CCN(C5COC5)CC4)cc3)c2n1
Result block: bottom

====

Assay: Efflux ratio of apparent permeability of compound in human Caco2 cells
Format: ADME, cell-based
Conditions: Caco-2
Reported efflux ratio values are given for each entry in this list.

{"SMILES RECORD": "c1cn2cc(-c3ccc4cn[nH]c4c3)nc(Nc3ccc(N4CCN(C5COC5)CC4)cc3)c2n1", "MEASURE": "efflux ratio", "RESULT VALUE": 2.9}

Field efflux ratio (entry c1cn2cc(-c3cnc4nc[nH]c4c3)nc(Nc3ccc(N4CCN(C5COC5)CC4)cc3)c2n1 ) reads 5.8

Field efflux ratio (entry c1cn2cc(-c3cnc4c(n3)NCCO4)nc(Nc3ccc(N4CCN(C5COC5)CC4)cc3)c2n1 ) reads 3

Field efflux ratio (entry c1cn2cc(-c3ccc4nc[nH]c4c3)nc(Nc3ccc(N4CCN(C5COC5)CC4)cc3)c2n1 ) reads 38

Field efflux ratio (entry CN(C)C[C@@H]1CN(c2ccc(Nc3nc(-c4ccc5cn[nH]c5c4)cn4ccnc34)cc2)CCO1 ) reads 29
